measured_on: Human BCL-XL protein (N-terminal HiBiT tagged BCL-XL in HT1080 cells) (Homo sapiens, UniProt Q07817)
Construct: expressed in transfected cells; host or cells: HT-1080 (ATCC CCL-121), stably transduced with lentivirus pLV-UBC-N-HiBiT-BCL-XL-PGK-puro and selected with puromycin
Sequence (Q07817 whole entry): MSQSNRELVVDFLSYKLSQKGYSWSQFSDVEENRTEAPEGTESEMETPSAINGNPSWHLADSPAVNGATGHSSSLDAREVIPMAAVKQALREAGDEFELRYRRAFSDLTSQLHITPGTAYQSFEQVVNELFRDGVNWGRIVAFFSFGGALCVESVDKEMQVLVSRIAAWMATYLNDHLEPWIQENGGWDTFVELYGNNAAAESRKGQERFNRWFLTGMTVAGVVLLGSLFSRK
experimental_protocol: HiBiT based degradation assay
Type: cell-based
condition_summary: BCL-XL degradation; HT1080 cells expressing HiBiT-BCL-XL; 24 h; read-out: EC50 (24 h)
Procedure: Human BCL-XL protein coding open reading frame fused with N-terminal HiBiT coding sequence was synthesized from Integrated DNA Technologies (IDT). […] HT1080 cells expressing N-terminal HiBiT tagged BCL-XL were dispensed into a 384-well plate pre-spotted with compounds at varying concentrations. […] After incubation, luminescence was read on a PHERAstar FSX Plate Reader (BMG). […]
reported_endpoint: DC50

# annotated cases, reported DC50 shown
compound | DC50
Cc1c(OCCCN2CCN(CC3CCN(c4ccc5c(C6CCC(=O)NC6=O)nn(C)c5c4)CC3)CC2)cccc1-c1ccc(N2CCc3cccc(C(=O)Nc4nc5ccccc5s4)c3C2)nc1C(=O)O (stereo not drawn) [Compound 189] | < 100 nM
Cc1cc(OCCCN2CCN(CC(=O)Nc3cccc4c(C5CCC(=O)NC5=O)nn(C)c34)CC2)ccc1-c1ccc(N2CCc3cccc(C(=O)Nc4nc5ccccc5s4)c3C2)nc1C(=O)O (stereo not drawn) [Compound 242] | < 100 nM

Switching to the query record.
DC50 in this record for Cc1c(OCCCC2CCN(CCCOc3ccc4c(C5CCC(=O)NC5=O)nn(C)c4c3)CC2)cccc1-c1ccc(N2CCc3cccc(C(=O)Nc4nc5ccccc5s4)c3C2)nc1C(=O)O (stereo not drawn) [Compound 172] : < 100 nM

###

measured_on: Human BCL-XL protein (N-terminal HiBiT tagged BCL-XL in HT1080 cells) (Homo sapiens)
Construct: expressed in transfected cells; host or cells: HT-1080 (ATCC CCL-121), stably transduced with lentivirus pLV-UBC-N-HiBiT-BCL-XL-PGK-puro and selected with puromycin
experimental_protocol: HiBiT based degradation assay
Type: cell-based
condition_summary: BCL-XL degradation normalized with DMSO control; HT1080 cells expressing HiBiT-BCL-XL; 24 h
Procedure: Human BCL-XL protein coding open reading frame fused with N-terminal HiBiT coding sequence was synthesized from Integrated DNA Technologies (IDT). […] HT1080 cells expressing N-terminal HiBiT tagged BCL-XL were dispensed into a 384-well plate pre-spotted with compounds at varying concentrations. […] After incubation, luminescence was read on a PHERAstar FSX Plate Reader (BMG). […]

compound | Ymin (24 h)
Cc1cc(O[C@H]2CC[C@H](CCC(=O)N3CCN(c4ccc5c(C6CCC(=O)NC6=O)nn(C)c5c4)CC3)CC2)ccc1-c1ccc(N2CCc3cccc(C(=O)Nc4nc5ccccc5s4)c3C2)nc1C(=O)O (some centres unmarked) [Compound 251a] | A (Ymin < 50%)
Cc1c(OCC[C@@H]2CCC3(CCN(CC(=O)Nc4ccc5c(C6CCC(=O)NC6=O)nn(C)c5c4)CC3)C2)cccc1-c1ccc(N2CCc3cccc(C(=O)Nc4nc5ccccc5s4)c3C2)nc1C(=O)O (single isomer, unassigned) [Compound 272b] | A (Ymin < 50%)

###

Here, each record is paired with measured DC50 data.
measured_on: Human BCL-XL protein (N-terminal HiBiT tagged BCL-XL in HT1080 cells) (Homo sapiens, UniProt Q07817)
Construct: expressed in transfected cells; host or cells: HT-1080 (ATCC CCL-121), stably transduced with lentivirus pLV-UBC-N-HiBiT-BCL-XL-PGK-puro and selected with puromycin
experimental_protocol: HiBiT based degradation assay
Format: cell-based
condition_summary: BCL-XL degradation; HT1080 cells expressing HiBiT-BCL-XL; 24 h; read-out: EC50 (24 h)

compound | DC50
Cc1c(OCCCN2CCN(CCCOc3ccc4c(C5CCC(=O)NC5=O)nn(C)c4c3)C(C(F)(F)F)C2)cccc1-c1ccc(N2CCc3cccc(C(=O)Nc4nc5ccccc5s4)c3C2)nc1C(=O)O (stereo not drawn) | 100 to 1000 nM
Cc1c(OCCCC2CCN(CCC3CCN(c4ccc5c(C6CCC(=O)NC6=O)nn(C)c5c4)CC3)CC2)cccc1-c1ccc(N2CCc3cccc(C(=O)Nc4nc5ccccc5s4)c3C2)nc1C(=O)O (stereo not drawn) | < 100 nM

Per the record, Cc1c(OCCCC[C@@H]2CCCN(CC(=O)Nc3ccc4c(C5CCC(=O)NC5=O)nn(C)c4c3)C2)cccc1-c1ccc(N2CCc3cccc(C(=O)Nc4nc5ccccc5s4)c3C2)nc1C(=O)O (stereo partly drawn) [Compound 202b] has DC50 of < 100 nM

###

measured_on: Human BCL-XL protein (N-terminal HiBiT tagged BCL-XL in HT1080 cells) (Homo sapiens)
Construct: expressed in transfected cells; host or cells: HT-1080 (ATCC CCL-121), stably transduced with lentivirus pLV-UBC-N-HiBiT-BCL-XL-PGK-puro and selected with puromycin
experimental_protocol: HiBiT based degradation assay
Assay type: cell-based
condition_summary: BCL-XL degradation; HT1080 cells expressing HiBiT-BCL-XL; 24 h; read-out: EC50 (24 h)
reported_endpoint: DC50

Some solved entries appear below for comparison.
molecule | measured_on | DC50
Cc1c(O[C@H]2CCC3(CCN(CC(=O)Nc4ccc5c(C6CCC(=O)NC6=O)nn(C)c5c4)CC3)C2)cccc1-c1ccc(N2CCc3cccc(C(=O)Nc4nc5ccccc5s4)c3C2)nc1C(=O)O (single isomer, unassigned) [Compound 268a] | Human BCL-XL protein (N-terminal HiBiT tagged BCL-XL in HT1080 cells) (Homo sapiens) | < 100 nM
Cc1c(O[C@H]2CC[C@H](CCCN3CCN(c4ccc5c(C6CCC(=O)NC6=O)nn(C)c5c4)[C@H](C(F)(F)F)C3)CC2)cccc1-c1ccc(N2CCc3cccc(C(=O)Nc4nc5ccccc5s4)c3C2)nc1C(=O)O (stereo partly drawn) [Compound 301b] | Human BCL-XL protein (N-terminal HiBiT tagged BCL-XL in HT1080 cells) (Homo sapiens) | < 100 nM
Cc1c(O[C@H]2CC[C@H](CCCCN3CCC[C@@H](c4cccc5c(C6CCC(=O)NC6=O)nn(C)c45)C3)CC2)cccc1-c1ccc(N2CCc3cccc(C(=O)Nc4nc5ccccc5s4)c3C2)nc1C(=O)O (single isomer, unassigned) [Compound 351b] | Human BCL-XL protein (N-terminal HiBiT tagged BCL-XL in HT1080 cells) (Homo sapiens) | < 100 nM
Cc1c(OCCCC2CCN(CC(=O)Nc3cc4c(cc3F)c(C3CCC(=O)NC3=O)nn4C)CC2)cccc1-c1ccc(N2CCc3cccc(C(=O)Nc4nc5ccccc5s4)c3C2)nc1C(=O)O (stereo not drawn) | Human BCL-XL protein (N-terminal HiBiT tagged BCL-XL in HT1080 cells) (Homo sapiens) | 100 to 1000 nM
Cc1c(OCCN2CCN(CC(=O)N3CCN(c4ccc5c(C6CCC(=O)NC6=O)nn(C)c5c4)CC3)CC2)cccc1-c1ccc(N2CCc3cccc(C(=O)Nc4nc5ccccc5s4)c3C2)nc1C(=O)O (stereo not drawn) | Human BCL-XL protein (N-terminal HiBiT tagged BCL-XL in HT1080 cells) (Homo sapiens) | < 100 nM

Now look at this entry.
response.value for Cc1c(OCCO[C@H]2C[C@H]3CC[C@@H](C2)N3CC(=O)Nc2cccc3c(C4CCC(=O)NC4=O)nn(C)c23)cccc1-c1ccc(N2CCc3cccc(C(=O)Nc4nc5ccccc5s4)c3C2)nc1C(=O)O (stereo partly drawn) [Compound 224b] (field: DC50) = < 100 nM

###

measured_on: Human BCL-XL protein (N-terminal HiBiT tagged BCL-XL in HT1080 cells) (Homo sapiens, UniProt Q07817)
Construct: expressed in transfected cells; host or cells: HT-1080 (ATCC CCL-121), stably transduced with lentivirus pLV-UBC-N-HiBiT-BCL-XL-PGK-puro and selected with puromycin
experimental_protocol: HiBiT based degradation assay
Assay type: cell-based
condition_summary: BCL-XL degradation normalized with DMSO control; HT1080 cells expressing HiBiT-BCL-XL; 24 h
reported_endpoint: Ymin (24 h)

molecule | Ymin (24 h)
Cc1c(O[C@H]2CC[C@H](CC[C@H](C)N3CCN(c4ccc5c(C6CCC(=O)NC6=O)nn(C)c5c4)CC3)CC2)cccc1-c1ccc(N2CCc3cccc(C(=O)Nc4nc5ccccc5s4)c3C2)nc1C(=O)O (single isomer, unassigned) [Compound 281a] | A (Ymin < 50%)
Cc1c(OCC(F)(F)CC2CCN(CC(=O)Nc3ccc4c(C5CCC(=O)NC5=O)nn(C)c4c3)CC2)cccc1-c1ccc(N2CCc3cccc(C(=O)Nc4nc5ccccc5s4)c3C2)nc1C(=O)O (stereo not drawn) | A (Ymin < 50%)
Cc1c(O[C@H]2CC[C@H](CC[C@H](C)N3CCN(c4cccc5c(C6CCC(=O)NC6=O)nn(C)c45)CC3)CC2)cccc1-c1ccc(N2CCc3cccc(C(=O)Nc4nc5ccccc5s4)c3C2)nc1C(=O)O (single isomer, unassigned) [Compound 283a] | A (Ymin < 50%)
Cc1c(O[C@H]2CC[C@H](CCCN3CCN(c4ccc5c(C6CCC(=O)NC6=O)nn(C)c5c4)[C@@H](C)C3)CC2)cccc1-c1ccc(N2CCc3cccc(C(=O)Nc4nc5ccccc5s4)c3C2)nc1C(=O)O (stereo partly drawn) [Compound 278b] | A (Ymin < 50%)
Cc1cc(OCC[C@@H](C)C2CCN(CC(=O)Nc3ccc4c(C5CCC(=O)NC5=O)nn(C)c4c3)CC2)ccc1-c1ccc(N2CCc3cccc(C(=O)Nc4nc5ccccc5s4)c3C2)nc1C(=O)O (single isomer, unassigned) [Compound 266a] | A (Ymin < 50%)
Cc1c(OCCCCC2CCN(CC3CCN(c4ccc5c(C6CCC(=O)NC6=O)nn(C)c5c4)CC3)CC2)cccc1-c1ccc(N2CCc3cccc(C(=O)Nc4nc5ccccc5s4)c3C2)nc1C(=O)O (stereo not drawn) | A (Ymin < 50%)
Cc1c(OCCC2CCN(CC(=O)N3CCN(c4cccc5c(C6CCC(=O)NC6=O)nn(C)c45)CC3)CC2)cccc1-c1ccc(N2CCc3cccc(C(=O)Nc4nc5ccccc5s4)c3C2)nc1C(=O)O (stereo not drawn) | A (Ymin < 50%)

We next turn to a different molecule, shown below.
Entry Cn1nc(C2CCC(=O)NC2=O)c2ccc(N3CCN(CCC[C@H]4CC[C@H](Oc5cccc(-c6ccc(N7CCc8cccc(C(=O)Nc9nc%10ccccc%10s9)c8C7)nc6C(=O)O)c5)CC4)CC3)cc21 (stereo partly drawn) [Compound 330a] , Ymin (24 h) reported as A (Ymin < 50%)
